test system: MALME-3M melanoma; test: NCI tumour cell line growth inhibition, 48 h; in the data active = GI50 below about 0.43 µM; inactive = the rest
Classes used: active, inactive

[
  {
    "MOLECULE": "C=C(C)[C@@H]1CC[C@]2(C(=O)Nc3ccccn3)CC[C@]3(C)[C@H](CC[C@@H]4[C@@]5(C)CCCNC(C)(C)[C@@H]5CC[C@]43C)[C@@H]12",
    "ASSIGNED_CLASS": "inactive"
  },
  {
    "MOLECULE": "COc1ccc(-c2nn(-c3ccc(NC(=O)Nc4ccc(Cl)c(Cl)c4)cc3)cc2-c2ccncc2)cc1Cl",
    "ASSIGNED_CLASS": "inactive"
  },
  {
    "MOLECULE": "O=C(CCc1ccco1)NC1CCN(CC2(c3ccc(Cl)cc3)CCC2)CC1",
    "ASSIGNED_CLASS": "inactive"
  },
  {
    "MOLECULE": "O=C(C[C@@]1(O)C(=O)Nc2c(Cl)ccc(Cl)c21)c1ccc(C2CC2)cc1",
    "ASSIGNED_CLASS": "inactive"
  },
  {
    "MOLECULE": "O=C1c2ccc3c4c(ccc(c24)C(=O)N1CCCNCc1ccccc1)C(=O)N(CCCNCc1ccccc1)C3=O",
    "ASSIGNED_CLASS": "active"
  },
  {
    "MOLECULE": "CN1C(=O)N(C)C2C1NN=c1s/c(=C\\c3c[nH]c4ccccc34)c(=O)n12 (centres undefined)",
    "ASSIGNED_CLASS": "active"
  },
  {
    "MOLECULE": "Cc1ccc(Nc2[nH]c(C(=O)c3ccc(Cl)cc3)c(N)c2C(=S)Nc2ccccc2)nc1",
    "ASSIGNED_CLASS": "inactive"
  },
  {
    "MOLECULE": "N.N.N.N.N.N#N.[Cl-].[Os+7]",
    "ASSIGNED_CLASS": "inactive"
  },
  {
    "MOLECULE": "CSC1=Nc2c(c(C)c(-c3ccccc3)n2CCCCl)C2=NC(=O)CN12",
    "ASSIGNED_CLASS": "inactive"
  }
]

###

tested on: HT29 colon; assay: NCI tumour cell line growth inhibition, 48 h
Catalogue of compounds with associated TGI

[
  {
    "COMPOUND": "C=CC1(c2ccccc2Cl)N/C(=C/OCC)CO1 (stereo unspecified)",
    "TGI": "> 100 µM"
  },
  {
    "COMPOUND": "CCOC(=O)CCC(NC(=O)c1ccc(Nc2cnc3cc(C(F)(F)F)ccc3n2)cc1)C(=O)OCC (stereo unspecified)",
    "TGI": "> 100 µM"
  },
  {
    "COMPOUND": "CCc1nc(-n2c(CC)nc3ccccc3c2=O)nc(N)c1-c1ccc(Cl)cc1",
    "TGI": "> 100 µM"
  },
  {
    "COMPOUND": "OC(Cc1ccccc1)(Cc1ccccc1)c1ccccc1",
    "TGI": "34.9 µM"
  },
  {
    "COMPOUND": "Cc1ccc(Nc2[nH]c(C(=O)c3ccc(Cl)cc3)c(N)c2C(=S)Nc2ccccc2)nc1",
    "TGI": "> 100 µM"
  },
  {
    "COMPOUND": "CC(O)CCNC(=O)Nc1c(C(F)(F)F)cc(-c2ccccc2)[nH]c1=O (stereo unspecified)",
    "TGI": "> 100 µM"
  }
]

###

test system: RPMI-8226 leukemia; experiment: NCI tumour cell line growth inhibition, 48 h
Lab note: anything with TGI at or over 30 µM counts as YES; the rest go in NO.

[
  {
    "COMPOUND": "Cc1c2cnccc2c(C)c2c1c1cc(C(=O)O)ccc1n2C",
    "ASSIGNED_CLASS": "NO"
  },
  {
    "COMPOUND": "CC(C)(Cl)C(Br)CCC(CBr)=C(Cl)CCl (mixture of isomers)",
    "ASSIGNED_CLASS": "NO"
  },
  {
    "COMPOUND": "COc1cc(/C=C/C(=O)NC[C@]2(O)CCC3C4CCc5cc(O)ccc5C4CCC32C)ccc1O (stereo partly specified)",
    "ASSIGNED_CLASS": "NO"
  },
  {
    "COMPOUND": "CSc1c(S(C)=O)[nH]c2cc(Br)cc(Br)c12 (stereo unspecified)",
    "ASSIGNED_CLASS": "YES"
  },
  {
    "COMPOUND": "COc1cccc2c1nc1cccc(OC)c1[n+]2[O-]",
    "ASSIGNED_CLASS": "YES"
  },
  {
    "COMPOUND": "Nc1ccc2ncc(Nc3ccc(F)cc3)nc2c1",
    "ASSIGNED_CLASS": "YES"
  },
  {
    "COMPOUND": "O=C(O)CC(C(=O)O)C1c2ccccc2-c2ccccc21 (stereo unspecified)",
    "ASSIGNED_CLASS": "YES"
  },
  {
    "COMPOUND": "O=C(CCc1ccco1)NC1CCN(CC2(c3ccc(Cl)cc3)CCC2)CC1",
    "ASSIGNED_CLASS": "YES"
  },
  {
    "COMPOUND": "O=[N+]([O-])c1ccc(/C=N\\Nc2ccc([N+](=O)[O-])cn2)cc1",
    "ASSIGNED_CLASS": "YES"
  }
]

###

Catalogue of compounds with associated TGI
system: SF-295 CNS; test: NCI tumour cell line growth inhibition, 48 h

[
  {
    "COMPOUND": "CC1(C)C(=O)N(O)C(C)(C)N1N=O",
    "CENSORING_OPERATOR": ">",
    "TGI (µM)": 10
  },
  {
    "COMPOUND": "Cc1cc(S(N)(=O)=O)c(S/C(=N\\Nc2ccc([N+](=O)[O-])cc2)c2ccc(O)cc2)cc1Cl",
    "CENSORING_OPERATOR": "=",
    "TGI (µM)": 3.92
  },
  {
    "COMPOUND": "CN(C)Cc1cc(C(=O)/C=C/c2ccc(Br)cc2)cc(CN(C)C)c1O",
    "CENSORING_OPERATOR": "=",
    "TGI (µM)": 19
  },
  {
    "COMPOUND": "CC(C)Oc1c(C2(c3ccccc3O)SCCCS2)c(=O)c1=O",
    "CENSORING_OPERATOR": ">",
    "TGI (µM)": 100
  },
  {
    "COMPOUND": "CSc1c(S(C)=O)[nH]c2cc(Br)cc(Br)c12 (centres undefined)",
    "CENSORING_OPERATOR": "=",
    "TGI (µM)": 45.2
  },
  {
    "COMPOUND": "COc1cc(C(C)(C)C)cc(OC)c1C(O)(c1c(OC)cc(C(C)(C)C)cc1OC)c1c(OC)cc(C(C)(C)C)cc1OC",
    "CENSORING_OPERATOR": "=",
    "TGI (µM)": 0.479
  },
  {
    "COMPOUND": "COc1ccc2c(c1)CCC(CN1CCN(CCOC(c3ccc(F)cc3)c3ccc(F)cc3)CC1)C2O (centres undefined)",
    "CENSORING_OPERATOR": "=",
    "TGI (µM)": 34.5
  },
  {
    "COMPOUND": "CCN1CCC2(CC1)NC(=O)c1c(c3ccc(Cl)c(Cl)c3n1C)C2C#N (centres undefined)",
    "CENSORING_OPERATOR": "=",
    "TGI (µM)": 4.35
  },
  {
    "COMPOUND": "Nc1cc(S(=O)(=O)O)cc2cc(S(=O)(=O)O)c(N=Nc3ccc(-c4ccc(N=Nc5c(S(=O)(=O)O)cc6cc(S(=O)(=O)O)cc(N)c6c5O)cc4)cc3)c(O)c12",
    "CENSORING_OPERATOR": ">",
    "TGI (µM)": 100
  }
]

###

Catalogue of compounds with associated TGI
system: DMS 273 small cell lung; experiment: NCI tumour cell line growth inhibition, 48 h
PARAMETER: TGI

[
  {
    "COMPOUND": "N.N.N.N.N.N#N.[Cl-].[Os+7]",
    "REPORTED_RESULT": "> 100 µM"
  },
  {
    "COMPOUND": "O=Nc1ccc(O)c2ncccc12",
    "REPORTED_RESULT": "10.3 µM"
  },
  {
    "COMPOUND": "c1ccc(-n2cnnc2-c2nsc3ccccc23)cc1",
    "REPORTED_RESULT": "> 100 µM"
  },
  {
    "COMPOUND": "CC(C)=CCc1c(O)ccc2c1OC1c3ccc(O)c(CC=C(C)C)c3OCC21 (stereo unspecified)",
    "REPORTED_RESULT": "28.2 µM"
  },
  {
    "COMPOUND": "NC1=NN(c2ccccc2)C(=O)C1/C(=N\\NC(=O)c1cc2ccccc2cc1O)C(=O)Nc1nc([N+](=O)[O-])cs1 (stereo unspecified)",
    "REPORTED_RESULT": "> 73.6 µM"
  },
  {
    "COMPOUND": "O=c1c2cc(Br)ccc2nc(-c2ccccc2)n1NCC1(O)OCC(O)C(O)C1O (stereo unspecified)",
    "REPORTED_RESULT": "> 100 µM"
  },
  {
    "COMPOUND": "O=C(c1ccco1)c1ccccc1C(=O)c1ccco1",
    "REPORTED_RESULT": "> 100 µM"
  },
  {
    "COMPOUND": "O=[N+]([O-])c1cc2c(cc1O)[nH]c1cccc([N+](=O)[O-])c12",
    "REPORTED_RESULT": "> 100 µM"
  },
  {
    "COMPOUND": "COc1ccc(C(=O)Nc2ccc(S(=O)(=O)NCC(=O)O)cc2)cc1",
    "REPORTED_RESULT": "> 100 µM"
  },
  {
    "COMPOUND": "Cc1ccc(C(=O)OC(C)C)cc1N=NN(C)C",
    "REPORTED_RESULT": "> 100 µM"
  },
  {
    "COMPOUND": "COc1cc(C(C#N)NNC(=O)Cc2ccccc2)cc(OC)c1OC (stereo unspecified)",
    "REPORTED_RESULT": "> 100 µM"
  }
]
